Source: patent US20230278972A1

- System: kochia (Bassia scoparia)
- protocol: Test A preemergence, kochia
- Format: in vivo
- recorded_conditions: Preemergence, 500 g ai/ha; visual injury on 0 to 100 scale (0 no effect, 100 complete control), approximately 10 days
experimental_readout: Kochia plant response rating

Examples with their reported Kochia plant response rating follow.
| smiles_record | experimental_readout | reported |
| --- | --- | --- |
| Cc1cc(F)c(C(=O)N2CCC(C#N)CC2)cc1N(S(=O)(=O)C(F)(F)F)S(=O)(=O)C(F)(F)F | Kochia plant response rating | 80 |
| Cc1cc(Cl)c(C(=O)N2CCOCC2)cc1NS(=O)(=O)C(F)(F)F | Kochia plant response rating | 90 |

Now consider the entry below.
Query: May I ask what Kochia plant response rating has been recorded for "Cc1cc(Cl)c(C(=O)N2CCCCC2)cc1NS(=O)(=O)C(F)(F)F" ?
Reply: 80

====

- Test system: wheat (Triticum aestivum)
- protocol: Test A postemergence, wheat
- Format: in vivo
- recorded_conditions: Postemergence, 125 g ai/ha; visual injury approx. 10 days; 0 to 100 scale (0 no effect, 100 complete control)
Doc: threshold 50 (exclusive). Items with Plant response rating, Wheat beneath it return true; others return false.

| compound | qualitative_label |
| --- | --- |
| Cc1cc(C)c(N(S(C)(=O)=O)S(=O)(=O)C(F)(F)F)cc1-c1cc(C(C)C)nn(C)c1=O [Compound 39] | false |

Query: # check: Plant response rating, Wheat < 50 for CCCn1nccc(-c2cc(NS(=O)(=O)C(F)(F)F)c(C)cc2C)c1=O [Compound 58]
Reply: true

Query: # check: Plant response rating, Wheat < 50 for COC1CCCN(C(=O)c2cc(N(S(=O)(=O)C(F)(F)F)S(=O)(=O)C(F)(F)F)c(C)cc2C)C1 (centres unmarked) [Compound 119]
Reply: true

Query: # check: Plant response rating, Wheat < 50 for Cc1cc(Cl)c(NS(=O)(=O)C(F)(F)F)cc1-c1cn(C)c(=O)n(C)c1=O [Compound 29]
Reply: false

Query: # check: Plant response rating, Wheat < 50 for Cc1cc(-c2cc(NS(=O)(=O)C(F)(F)F)c(C)cc2C)c(=O)n(C)n1 [Compound 62]
Reply: true

Query: # check: Plant response rating, Wheat < 50 for Cc1cc(C)c(C(=O)N2COC(C)(C)C2)cc1NS(=O)(=O)C(F)(F)F [Compound 112]
Reply: true

Query: # check: Plant response rating, Wheat < 50 for COc1cc(-c2cc(NS(=O)(=O)C(F)(F)F)c(C)cc2C)c(=O)n(C)n1 [Compound 70]
Reply: true

Query: # check: Plant response rating, Wheat < 50 for Cc1cc(Cl)c(NS(=O)(=O)C(F)(F)F)cc1C(=O)N1CCSCC1 [Compound 26]
Reply: true

Query: # check: Plant response rating, Wheat < 50 for Cc1cc(C)c(-c2cc(Cl)nn(C)c2=O)cc1NS(=O)(=O)C(F)(F)F [Compound 72]
Reply: false

Query: # check: Plant response rating, Wheat < 50 for Cc1cc(C)c(N(S(=O)(=O)C(F)(F)F)S(=O)(=O)C(F)(F)F)cc1C1=NOC(C(C)(C)C)C1 (centres unmarked) [Compound 127]
Reply: true

Query: # check: Plant response rating, Wheat < 50 for CCn1cc(-c2cc(N(S(=O)(=O)C(F)(F)F)S(=O)(=O)C(F)(F)F)c(C)cc2C)c(=O)n(CC)c1=O [Compound 43]
Reply: false

Query: # check: Plant response rating, Wheat < 50 for CCn1cc(-c2cc(NS(=O)(=O)C(F)(F)F)c(C)cc2C)c(=O)n(C)c1=O [Compound 32]
Reply: false

Query: # check: Plant response rating, Wheat < 50 for CCn1cc(-c2cc(NS(=O)(=O)C(F)(F)F)c(C)cc2C)c(=O)n(CC)c1=O [Compound 44]
Reply: false

Query: # check: Plant response rating, Wheat < 50 for Cc1cc(C#N)c(C(=O)N2CCCCC2)cc1NS(=O)(=O)C(F)(F)F [Compound 126]
Reply: true

====

- Test system: corn (Zea mays)
- protocol: Test A1 postemergence, corn
- Format: in vivo
- recorded_conditions: Postemergence, 125 g ai/ha; 0 to 100 scale (0 no effect, 100 complete control); 10 days
experimental_readout: Plant response rating, Corn
# print the numeric value only

Examples with their reported Plant response rating, Corn follow.
| molecule | Plant response rating, Corn |
| --- | --- |
| Cc1cc(C)c(C2=NOC(C(C)C)C2)cc1NS(=O)(=O)C(F)(F)F (stereo not shown) | 20 |
| Cc1cc(Cl)c(NS(=O)(=O)C(F)(F)F)cc1N1CCC2(CCCCC2)C1=O | 30 |

Query: May I ask what Plant response rating, Corn has been recorded for "Cc1cc(C)c(N(COC(=O)C(C)(C)C)S(=O)(=O)C(F)(F)F)cc1N1CCC2(CCC(F)(F)CC2)C1=O" ?
Reply: 10

Query: May I ask what Plant response rating, Corn has been recorded for "Cc1cc(C)c(N2Cc3cccc(C)c3C2=O)cc1NS(=O)(=O)Cl" ?
Reply: 80

Query: May I ask what Plant response rating, Corn has been recorded for Cc1cc(C)c(N2CCC3(CCC(C)CC3)C2=O)cc1NS(=O)(=O)C(F)(F)F (stereo not shown) ?
Reply: 0

====

- Tested on: pigweed (Amaranthus retroflexus)
- protocol: Test A postemergence, pigweed
- Assay type: in vivo
- recorded_conditions: Postemergence, 125 g ai/ha; visual injury approx. 10 days; 0 to 100 scale (0 no effect, 100 complete control)
Everything with Plant response rating, Pigweed lower than 70 is N; everything else, including exactly 70, is Y.

Consider the following illustrative entries.
| molecule | qualitative_label |
| --- | --- |
| Cc1c(NS(=O)(=O)C(F)(F)F)cc(C(=O)N2CC(C)OC(C)C2)c(C)c1F (centres unmarked) [Compound 116] | N |
| O=C(c1ccc(Cl)c(NS(=O)(=O)C(F)(F)F)c1)N1CCOCC1 [Compound 15] | N |

Query: Hi team, for COC(=O)N(c1cc(-c2ccnn(C)c2=O)c(C)cc1C)S(=O)(=O)C(F)(F)F [Compound 53] , is the recorded Plant response rating, Pigweed at or above 70?
Reply: N

Query: Hi team, for Cc1cc(C)c(-n2nccc(Cl)c2=O)cc1NS(=O)(=O)C(F)(F)F [Compound 82] , is the recorded Plant response rating, Pigweed at or above 70?
Reply: N

Query: Hi team, for CO[C@@H]1CCCN(C(=O)c2cc(NS(=O)(=O)C(F)(F)F)c(C)cc2C)C1 [Compound 94] , is the recorded Plant response rating, Pigweed at or above 70?
Reply: Y

Query: Hi team, for COC1CN(C(=O)c2cc(NS(=O)(=O)C(F)(F)F)c(C)cc2C)C1 [Compound 111] , is the recorded Plant response rating, Pigweed at or above 70?
Reply: Y

====

- System: ragweed (common ragweed, Ambrosia artemisiifolia)
- protocol: Test A preemergence, ragweed
- Format: in vivo
- recorded_conditions: Preemergence, 500 g ai/ha; 0 to 100 scale (0 no effect, 100 complete control)
- Source text: Seeds of plant species selected from barnyardgrass (Echinochloa crus-galli), kochia (Bassia scoparia), ragweed (common ragweed, Ambrosia artemisiifolia), Ryegrass, Italian (Italian ryegrass, Lolium multiflorum), Foxtail, Giant (giant foxtail, Setaria faberi), and pigweed (Amaranthus retroflexus) were planted into a blend of loam soil and sand and treated preemergence with a directed soil spray using test chemicals formulated in a non-phytotoxic solvent mixture which included a surfactant. […]
experimental_readout: Plant response rating, Ragweed

Query: What measured Plant response rating, Ragweed is associated with Cc1cc(Cl)c(NS(=O)(=O)C(F)(F)F)cc1C1=NOC2(CCCC2)C1 [Compound 204] on ragweed (common ragweed, Ambrosia artemisiifolia)?
Reply: 90

Query: What measured Plant response rating, Ragweed is associated with Cc1cc(C)c(-c2cc(C(C)C)nn(C)c2=O)cc1NS(=O)(=O)C(F)(F)F [Compound 41] on ragweed (common ragweed, Ambrosia artemisiifolia)?
Reply: 80

====

Each entry below carries its recorded Ragweed plant response rating.
- System: ragweed (common ragweed, Ambrosia artemisiifolia)
- protocol: Test A1 postemergence, ragweed
- Assay type: in vivo
- recorded_conditions: 31 g ai/ha, postemergence; 0 to 100 scale (0 no effect, 100 complete control)
# print the numeric value only

| compound | experimental_system | experimental_readout | reported |
| --- | --- | --- | --- |
| COC1CCN(C(=O)c2cc(N(COC(=O)C(C)(C)C)S(=O)(=O)C(F)(F)F)c(C)c(C)c2C)CC1 | ragweed (common ragweed, Ambrosia artemisiifolia) | Ragweed plant response rating | 50 |
| Cc1c(C2=NOC3(CCCC3)C2)cc(N(COC(=O)C(C)(C)C)S(=O)(=O)C(F)(F)F)c(C)c1C | ragweed (common ragweed, Ambrosia artemisiifolia) | Ragweed plant response rating | 20 |
| Cc1cc(C)c(N(COC(=O)C(C)(C)C)S(=O)(=O)C(F)(F)F)cc1N1CCC2(CCC(C)CC2)C1=O (stereo not shown) | ragweed (common ragweed, Ambrosia artemisiifolia) | Ragweed plant response rating | 60 |
| Cc1ccc(C2=NOC3CCCC23)cc1NS(=O)(=O)C(F)(F)F (stereo not shown) | ragweed (common ragweed, Ambrosia artemisiifolia) | Ragweed plant response rating | 20 |
| Cc1c(NS(=O)(=O)C(F)(F)F)cc(C(=O)N2CCC(C)CC2)c(C)c1C | ragweed (common ragweed, Ambrosia artemisiifolia) | Ragweed plant response rating | 40 |

Query: May I ask what Ragweed plant response rating has been recorded for Cc1cc(C)c(N(S(=O)(=O)C(F)(F)F)S(=O)(=O)C(F)(F)F)cc1N1CCC2(CCC(C(F)(F)F)CC2)C1=O (stereo not shown) ?
Reply: 50

Query: May I ask what Ragweed plant response rating has been recorded for "Cc1cc(C)c(N2Cc3cccc(Br)c3C2=O)cc1NS(=O)(=O)Cl" ?
Reply: 30

Query: May I ask what Ragweed plant response rating has been recorded for CCOC(=O)N(c1cc(C2=NOC3CCCC23)c(CC)cc1C)S(=O)(=O)C(F)(F)F (stereo not shown) ?
Reply: 20

Query: May I ask what Ragweed plant response rating has been recorded for "COc1cccc2c1C(=O)N(c1cc(N(COC(=O)C(C)(C)C)S(=O)(=O)Cl)c(C)cc1C)C2" ?
Reply: 60

Query: May I ask what Ragweed plant response rating has been recorded for "Cc1cc(Cl)c(NS(=O)(=O)C(F)(F)F)cc1N1CC2(CCCCC2)OC1=O" ?
Reply: 90
